Record form. Attribute: composite z-score. Fill in for each entry.
- ASSAY PROCEDURE: probe aLAP1 signal on lysate-treated microarray – cell lysate, small-molecule microarray, COS7 lysate, primary screen (AID 1124);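 also: lysate comes from COS7 cells expressing LAP1 and is applied at 0.3 µg/mL; score merges spot fluorescence near 667 nm with signal-to-noise over triplicate slides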
- CONDITION: probe aLAP1, fluorescence, higher = more signal

get_value(item= COCC(=C=CC[C@H](O)c1ccccc1OCCO)CCO , readout=composite z-score) returns 0.162

get_value(item= C=C(CCCC)/C(=C/C[C@H](OC(C)=O)c1ccc(OCCO)cc1)c1cnc2ccccc2c1 , readout=composite z-score) returns 0.117

get_value(item= CCCC[C@@H]1C[C@H]1[C@@H](NC(=O)c1cccnc1)c1ccc(Cl)cc1 , readout=composite z-score) returns -0.271

get_value(item= COc1ccc([Si](C)(C)[C@@H]2[C@@H](CCn3cc(CCO)nn3)O[C@]3(C(=O)N(Cc4cccc(N5C(=O)c6cccc7cccc5c67)c4)c4ccccc43)[C@H]2C)cc1 , readout=composite z-score) returns 0.222

---

- ASSAY PROCEDURE: plasmodial surface anion channel blockers, osmotic lysis – cell-based, P. falciparum Indochina, OD700, 18 h, primary screen (AID 1157)
- CONDITION: P. falciparum Indochina infected erythrocytes, osmotic lysis OD700, 18 h; higher = more signal, called active from +8 up or from −8 down
Record form. Attribute: z-score. Fill in for each entry.
Write no unit; give the number alone.

get_value(item= CC[C@@H]1C=C(C(=O)O)[C@H](c2ccc(C)cc2)N1S(=O)(=O)c1ccc(C)cc1 , readout=z-score) returns 0.856

get_value(item= CCCNC(=O)[C@@]1(Sc2ccc(C)cc2)CC(=O)N(Cc2ccccc2C(F)(F)F)[C@@H]1c1ccc(CO)cc1I , readout=z-score) returns -1.95

get_value(item= C[N+](C)(C)CCCC[C@@H]1NC(=O)[C@H]2C[C@@H](C(=O)NCCCCCCNC(=O)CS)[C@@H](c3ccc(O)cc3)N2C1=O , readout=z-score) returns 0.0061

get_value(item= [N-]=[N+]=Nc1ccccc1C[C@]1(C(=O)NCc2ccccc2)N=C(c2ccc(OCCCO)cc2)O[C@H]1c1ccccc1N=[N+]=[N-] , readout=z-score) returns 5.76

get_value(item= O=C(NC1CC1)[C@@H]1c2ccccc2C(=O)N(C2Cc3ccccc3C2)[C@H]1c1ccc(CO)cc1 , readout=z-score) returns -0.112

get_value(item= O=C(CS)NCCCCCNC(=O)[C@@H]1C[C@@H]2C(=O)NCC(=O)N2[C@@H]1c1cccc(OCCO)c1 , readout=z-score) returns -1.85

get_value(item= O=C1O[C@H](c2ccccc2)[C@H](c2ccccc2)N2[C@H]1[C@@H](C(=O)NC[C@H](O)c1ccccc1)[C@]1(C(=O)Nc3ccc(C#CC4=CCCCC4)cc31)[C@H]2c1ccccc1OCCO , readout=z-score) returns 2.06

---

Record form. Attribute: z-score. Fill in for each entry.
- ASSAY PROCEDURE: viability profiling in MM1S myeloma cells – cell-based, resazurin fluorescence, basal, 24 h, PK04 Diversity Set, profiling panel (AID 1174);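 also: MM1S multiple myeloma cell line; test concentration not given here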
- CONDITION: higher = more signal, called active from +8 up or from −8 down
Write no unit; give the number alone.

get_value(item= CCC(CC)C(O)C1C=CC2C(=O)N(c3ccccc3)C(=O)C2N1Nc1ccccc1 (stereo not given) , readout=z-score) returns 0.33

get_value(item= CCOc1ccc(N2C(=O)CSC2c2cccc([N+](=O)[O-])c2)cc1 (stereo not given) , readout=z-score) returns -0.0959

get_value(item= C=C(CCCC)/C(=C/C[C@H](OC(C)=O)c1ccc(OCCO)cc1)c1cnc2ccccc2c1 , readout=z-score) returns -1.42

get_value(item= CC(C)[Si](C#CCCCC#N)(Oc1ccccc1Br)C(C)C , readout=z-score) returns 0.456

get_value(item= O=C1NC(=O)C2C1C=CC(C(O)c1ccc(I)cc1)N2Nc1ccc(Cl)cc1Cl (stereo not given) , readout=z-score) returns -0.177
